target: T1, cynomolgus TNFR2 on cells (cynomolgus); assay: flow cytometry on cynomolgus PBMC, antibody at 10 ug/mL, anti-human Fc-PE secondary
T1 construct: whole, on cells; also called cynomolgus TNFR2 on CD4+ and CD8+ T cells
Outcome Measure: % CD4^+ ab^+ Donor 1 (%)
Give just the number in %; leave the unit off.

Look over these answered cases.
Binder	Outcome Measure	Number
chimeric SBT-004b (antibody, human IgG1, V domains shown, Same heavy chain as chSBT-004 (human IgG1 Fc domain); also called chSBT-004b) VH: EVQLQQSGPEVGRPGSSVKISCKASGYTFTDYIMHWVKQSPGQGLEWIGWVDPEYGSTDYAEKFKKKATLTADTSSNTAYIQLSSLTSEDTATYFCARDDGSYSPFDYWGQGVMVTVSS VL: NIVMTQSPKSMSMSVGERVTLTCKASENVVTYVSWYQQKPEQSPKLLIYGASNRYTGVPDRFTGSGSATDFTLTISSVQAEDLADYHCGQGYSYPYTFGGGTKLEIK	% CD4^+ ab^+ Donor 1	8
chimeric SBT-004 (antibody, V domains shown, VH fused to a human IgG1 Fc domain; also called chSBT-004) VH: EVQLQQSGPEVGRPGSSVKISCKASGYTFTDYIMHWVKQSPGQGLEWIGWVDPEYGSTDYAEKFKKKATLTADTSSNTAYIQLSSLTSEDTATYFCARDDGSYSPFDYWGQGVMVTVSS VL: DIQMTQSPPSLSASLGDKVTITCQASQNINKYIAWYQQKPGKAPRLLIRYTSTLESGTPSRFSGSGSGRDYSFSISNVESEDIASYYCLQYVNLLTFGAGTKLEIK	% CD4^+ ab^+ Donor 1	10.2
chimeric SBT-003 (antibody, V domains shown, also called chSBT-003) VH: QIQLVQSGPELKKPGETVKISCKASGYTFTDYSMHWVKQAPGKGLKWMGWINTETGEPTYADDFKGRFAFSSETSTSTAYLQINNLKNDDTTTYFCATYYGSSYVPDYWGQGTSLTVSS VL: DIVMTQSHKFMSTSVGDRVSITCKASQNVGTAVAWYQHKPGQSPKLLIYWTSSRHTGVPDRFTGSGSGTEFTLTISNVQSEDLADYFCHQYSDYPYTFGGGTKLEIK	% CD4^+ ab^+ Donor 1	0.7

Moving on to the next binder.
Problem: What does the record list as % CD4^+ ab^+ Donor 1 for chimeric SBT-002 (antibody, V domains shown, also called chSBT-002) VH: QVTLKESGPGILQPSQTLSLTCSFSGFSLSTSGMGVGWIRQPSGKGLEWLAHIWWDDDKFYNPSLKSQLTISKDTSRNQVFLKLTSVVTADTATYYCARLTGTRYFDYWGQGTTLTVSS VL: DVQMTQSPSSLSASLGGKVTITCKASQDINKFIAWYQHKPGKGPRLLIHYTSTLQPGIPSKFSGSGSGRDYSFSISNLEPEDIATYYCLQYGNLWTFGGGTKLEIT ?
Result: 9
